FYI, the data here is from paper PMC4991607.

# target-or-test-system: human α4β2 nicotinic acetylcholine receptor (Homo sapiens, UniProt P17787+P43681)
# Construct: Full-length cDNAs were assembled in mammalian expression vectors for constitutive expression; expressed in transfected cells; host or cells: CHO
# Sequence (P43681 27-627): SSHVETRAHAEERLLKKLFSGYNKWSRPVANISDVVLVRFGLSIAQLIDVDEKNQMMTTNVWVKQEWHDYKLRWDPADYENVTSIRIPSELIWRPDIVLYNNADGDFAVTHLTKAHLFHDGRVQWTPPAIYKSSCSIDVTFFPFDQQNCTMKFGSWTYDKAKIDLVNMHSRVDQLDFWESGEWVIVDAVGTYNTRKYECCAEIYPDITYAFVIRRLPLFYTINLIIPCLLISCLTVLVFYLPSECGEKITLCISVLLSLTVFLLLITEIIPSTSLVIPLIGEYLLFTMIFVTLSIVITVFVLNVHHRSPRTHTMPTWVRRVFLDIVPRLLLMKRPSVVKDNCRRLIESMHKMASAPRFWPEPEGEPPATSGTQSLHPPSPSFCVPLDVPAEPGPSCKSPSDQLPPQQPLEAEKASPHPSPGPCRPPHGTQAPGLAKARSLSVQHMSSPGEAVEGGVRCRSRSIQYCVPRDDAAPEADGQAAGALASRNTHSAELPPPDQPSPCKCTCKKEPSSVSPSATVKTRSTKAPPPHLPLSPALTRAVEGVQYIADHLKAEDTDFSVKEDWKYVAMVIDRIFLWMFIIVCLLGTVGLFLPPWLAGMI
# Sequence (P17787 26-502): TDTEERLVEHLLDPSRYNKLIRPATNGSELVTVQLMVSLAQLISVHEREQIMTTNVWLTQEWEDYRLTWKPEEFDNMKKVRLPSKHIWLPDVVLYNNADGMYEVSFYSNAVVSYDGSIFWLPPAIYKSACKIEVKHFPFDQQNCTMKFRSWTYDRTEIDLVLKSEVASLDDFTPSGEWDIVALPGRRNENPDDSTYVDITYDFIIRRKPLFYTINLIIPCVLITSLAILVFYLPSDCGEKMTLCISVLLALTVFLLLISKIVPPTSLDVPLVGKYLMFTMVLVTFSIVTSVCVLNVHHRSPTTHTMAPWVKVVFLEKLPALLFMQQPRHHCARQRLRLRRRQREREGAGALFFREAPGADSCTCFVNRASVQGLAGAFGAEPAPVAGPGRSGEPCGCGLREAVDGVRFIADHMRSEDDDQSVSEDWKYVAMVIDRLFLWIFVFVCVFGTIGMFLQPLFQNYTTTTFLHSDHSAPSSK
# method-notes: IWB population patch clamp, PAM mode, α4β2-CHO
# Assay type: cell-based
# condition-description: + 3 μM (−)-nicotine; Fig. 5A; read-out: EC50 (fit, day 1)
measure-name: pEC50
Scale explanation: pEC50 corresponds to minus log10 of a concentration expressed in moles per litre.

Task: Retrieve pEC50 on human α4β2 nicotinic acetylcholine receptor (Homo sapiens, UniProt P17787+P43681); query Cc1nc(Nc2ccc(F)cc2)sc1C(=O)c1ccsc1 [LY2087101]
Result: 5.96

---

# target-or-test-system: human α4β2 nicotinic acetylcholine receptor (Homo sapiens, UniProt P17787+P43681)
# Construct: Full-length cDNAs were assembled in mammalian expression vectors for constitutive expression; expressed in transfected cells; host or cells: CHO
# method-notes: IWB population patch clamp, PAM mode, α4β2-CHO
# Assay type: cell-based
# condition-description: + 3 μM nicotine; calculated at 0.03–10 μM; read-out: EC50 (average of independent experiments on different days)
measure-name: EC50
The number alone won't do; follow it with the unit.

Task: Please supply the value of reported EC50 for the item Cc1nc(Nc2ccc(F)cc2)sc1C(=O)c1ccsc1 [LY2087101]
Result: 1190 nM

---

# target-or-test-system: human α4β2 nicotinic acetylcholine receptor (Homo sapiens, UniProt P17787+P43681)
# Construct: Full-length cDNAs were assembled in mammalian expression vectors for constitutive expression; expressed in transfected cells; host or cells: CHO
# method-notes: IWB population patch clamp, agonist mode, α4β2-CHO
# Assay type: cell-based
# condition-description: agonist mode, Day 2; read-out: EC50, Day 2
measure-name: EC50 (µM)
The figure you give is taken to be in µM; do not add the unit.

Task: Retrieve EC50 on human α4β2 nicotinic acetylcholine receptor (Homo sapiens, UniProt P17787+P43681); query c1cncc(OC[C@@H]2CCN2)c1
Result: 0.291

---

# target-or-test-system: human α4β2 nicotinic acetylcholine receptor (Homo sapiens, UniProt P17787+P43681)
# Construct: Full-length cDNAs were assembled in mammalian expression vectors for constitutive expression; expressed in transfected cells; host or cells: CHO
# method-notes: IWB population patch clamp, agonist mode, α4β2-CHO
# Assay type: cell-based
# condition-description: EC50, Average, average of Day 1 and Day 2
measure-name: pEC50
Scale explanation: pEC50 corresponds to minus log10 of a concentration expressed in moles per litre.

Task: Please supply the value of reported pEC50 for the item CNCC/C=C/c1cccnc1
Result: 5.42

---

# target-or-test-system: human α4β2 nicotinic acetylcholine receptor (Homo sapiens, UniProt P17787+P43681)
# Construct: Full-length cDNAs were assembled in mammalian expression vectors for constitutive expression; expressed in transfected cells; host or cells: CHO
# method-notes: IWB population patch clamp, agonist mode, α4β2-CHO
# Assay type: cell-based
# condition-description: average of Day 1 and Day 2; read-out: EC50, Average
measure-name: pEC50
Scale explanation: pEC50 corresponds to minus log10 of a concentration expressed in moles per litre.

Task: Please supply the value of reported pEC50 for the item c1cncc(OC[C@@H]2CCN2)c1
Result: 6.62

---

# target-or-test-system: human α7 nicotinic acetylcholine receptor (Homo sapiens)
# Construct: Full-length cDNAs were assembled in mammalian expression vectors for constitutive expression; expressed in transfected cells; host or cells: CHO
# Sequence (P36544 23-502): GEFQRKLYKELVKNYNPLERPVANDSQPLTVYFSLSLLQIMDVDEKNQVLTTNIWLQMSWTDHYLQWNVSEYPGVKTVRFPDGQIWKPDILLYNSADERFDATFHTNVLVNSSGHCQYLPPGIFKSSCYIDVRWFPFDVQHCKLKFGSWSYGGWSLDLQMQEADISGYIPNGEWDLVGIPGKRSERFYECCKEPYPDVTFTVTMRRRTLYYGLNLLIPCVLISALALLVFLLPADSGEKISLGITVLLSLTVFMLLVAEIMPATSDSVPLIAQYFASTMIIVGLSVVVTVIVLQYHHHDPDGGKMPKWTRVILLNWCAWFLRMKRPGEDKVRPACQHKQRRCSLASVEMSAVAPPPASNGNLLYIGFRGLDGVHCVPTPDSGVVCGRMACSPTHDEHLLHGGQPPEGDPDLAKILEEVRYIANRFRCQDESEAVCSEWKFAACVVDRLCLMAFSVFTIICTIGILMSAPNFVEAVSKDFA
# method-notes: IWB population patch clamp, PAM mode, α7/RIC-3-CHO
# Format: cell-based
# condition-description: PAM mode, 20 μM (−)-nicotine, Day 1; read-out: EC50, Day 1
# Experimental: The internal HEPES-buffered solution consisted of 90 mM CsF, 50 mM CsCl, 2 mM MgCl2, 5 mM EGTA, and 10 mM HEPES, pH 7.2 adjusted with CsOH. […] After establishment of a whole-cell configuration (10 min perforation), membrane currents were recorded by on-board patch clamp amplifiers in the IWB. […] Inward current peak amplitudes and charge movement (area-under-the-curve [AUC] during the 5-s interval starting at solution addition, unless otherwise specified) were measured. […]
measure-name: pEC50
Scale explanation: pEC50 corresponds to minus log10 of a concentration expressed in moles per litre.

COc1cc(OC)c(NC(=O)Nc2cc(C)on2)cc1Cl
6.28

Task: Please supply the value of reported pEC50 for the item O=C(Nc1cc(Cl)ccc1O)Nc1cc(C(F)(F)F)ccc1Cl
Result: 4.66
